Listed next: entries and their corresponding activity change, negative = inhibition.
- testedTarget: D(1A) dopamine receptor (Homo sapiens) (UniProt P21728)
- Sequence (P21728 whole entry, looked up): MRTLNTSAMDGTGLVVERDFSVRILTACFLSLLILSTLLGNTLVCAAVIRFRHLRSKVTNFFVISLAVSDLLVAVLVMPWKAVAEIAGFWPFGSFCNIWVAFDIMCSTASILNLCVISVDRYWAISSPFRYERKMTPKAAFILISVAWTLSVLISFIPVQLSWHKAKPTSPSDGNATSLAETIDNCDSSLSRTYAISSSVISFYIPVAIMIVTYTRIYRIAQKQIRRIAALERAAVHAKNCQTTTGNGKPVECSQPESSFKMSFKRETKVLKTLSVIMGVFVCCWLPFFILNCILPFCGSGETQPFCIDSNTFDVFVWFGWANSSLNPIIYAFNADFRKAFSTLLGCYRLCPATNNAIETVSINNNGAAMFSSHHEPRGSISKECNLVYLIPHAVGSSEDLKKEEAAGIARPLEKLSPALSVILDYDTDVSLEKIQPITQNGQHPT
- experimentalDetails: Antagonist of Human D 1 Dopamine Receptor: qHTS; also: % is scaled to controls: 0 for no effect and ±100 for the full control effect
- conditions: HEK293 TREx D1 cells, calcium flux, dopamine EC80; at 10 µM; active compounds read low
Out of some 360,000 compounds screened, about 11,000 (3.1%) were called active. Shown is part of a subset that was picked to be rich in actives.
Give the number; % is assumed, so skip it.

Worked cases, answers included:
Cc1nc2c(-c3ccccc3)c(C)nn2c(C)c1CCC(=O)NCCc1ccccc1 | -7.07
O=C(CSc1ncn[nH]1)Nc1ccnc2ccccc12 | -18.5
COC(=O)c1cc(Oc2ccc(S(=O)(=O)N3CCOCC3)cc2[N+](=O)[O-])cc(C(=O)OC)c1 | -38.9

Exercise: Param readout = activity change, negative = inhibition; param system = D(1A) dopamine receptor (Homo sapiens) (UniProt P21728); param query = COc1ccccc1-c1cc2nc(C)c(CCC(=O)NC3CCCCC3)c(C)n2n1 ; response: value
Solution: 2.22

Exercise: Same question for COc1ccc(C(=O)CCc2ccccc2O)c(OC)c1 please.
Solution: -22.2

---

Listed next: entries and their corresponding activity change, negative = inhibition.
- testedTarget: D(1A) dopamine receptor (Homo sapiens) (UniProt P21728)
- experimentalDetails: Antagonist of Human D 1 Dopamine Receptor: qHTS; also: % is scaled to controls: 0 for no effect and ±100 for the full control effect
- conditions: HEK293 TREx D1 cells, calcium flux, dopamine EC80; at 10 µM; active compounds read low
Hit rate of the full screen: of about 360,000 compounds, about 11,000 (3.1%) were called active. This is one part of a sample in which actives are shown more often than they occur.
Give the number; % is assumed, so skip it.

Worked cases, answers included:
CN(c1ccc(O)cc1)c1nc(-c2cccnc2)cs1 | 1.14
Cc1nn(CCOc2ccccc2)c(=O)n1-c1ccccc1F | -11.9
COc1ccc(C(=O)C2CCCN(C(=O)c3cnsn3)C2)c(C)c1 (stereo not drawn) | 22.1
CCOc1ccc(CN(C)C(=O)c2ccc(=O)[nH]c2)cc1 | 10.3

Exercise: State the recorded activity change, negative = inhibition for this entry: Cc1cc(N2CCN(c3cccc(C(F)(F)F)c3)CC2)n2nc(-c3ccccc3)nc2n1
Solution: 23.9

Exercise: Same question for Cc1ccc(NC(=O)Cn2nnc3sc4c(c3c2=O)CCC(C)C4)cc1 (stereo not drawn) please.
Solution: -17.2

Exercise: Same question for CN(Cc1ccccc1)C(=O)c1ccc(COc2ccccc2)cc1 please.
Solution: -60.8

Exercise: Same question for CCOc1ccc(NC(=O)c2cc(S(=O)(=O)N3CCCC3)c[nH]2)cc1 please.
Solution: -12.2

Exercise: Same question for Cc1ccc(SCC(=O)Nc2ccc3oc(-c4ccccc4F)nc3c2)cc1 please.
Solution: -5.46

Exercise: Same question for COc1ccc(CC(=O)Nc2nnc3n2CCS3)cc1OC please.
Solution: 29.1

Exercise: Same question for COc1ccc(C(=O)C2CCCN(S(=O)(=O)c3cccc(C)c3)C2)c(C)c1 (stereo not drawn) please.
Solution: 2.24

Exercise: Same question for Cc1ccc2oc(=O)c3cnn(CC(=O)NCc4ccccc4Cl)c3c2c1 please.
Solution: 1.96

---

- testedTarget: D(1A) dopamine receptor (Homo sapiens) (UniProt P21728)
- experimentalDetails: Antagonist of Human D 1 Dopamine Receptor: qHTS; also: % is scaled to controls: 0 for no effect and ±100 for the full control effect
- conditions: HEK293 TREx D1 cells, calcium flux, dopamine EC80; at 10 µM; active compounds read low
In all, about 360,000 compounds went through this assay and about 11,000 (3.1%) were called active. The full list was thinned out, with actives kept by preference.
Listed next: entries and their corresponding activity change, negative = inhibition.

O=S(=O)(Nc1ccc2nc(-c3cccc(Cl)c3)oc2c1)c1ccccc1 | 2.59% (inactive)
Cc1cccc(NS(=O)(=O)c2ccc(-c3cnc(C4CC4)o3)cc2)c1 | -44.9% (active)
Cc1ccc(-c2cnc(C3CC3)o2)cc1S(=O)(=O)Nc1cccc(C)c1C | 9.76% (inactive)
CCOc1ccc(N(CC)C(=O)C2CCN(S(=O)(=O)c3cccc4nonc34)CC2)cc1 | -22% (inactive)
CC(=O)c1ccc(NC(=O)C2CCN(S(=O)(=O)c3c(C)noc3/C=C/c3ccc(C)cc3)CC2)cc1 | 0.387% (inactive)

Exercise: State the recorded activity change, negative = inhibition for this entry: Cc1nn(-c2ccccc2)c(-n2cccc2)c1C(=O)O
Solution: -45.8% (active)

Exercise: Same question for Cc1ccc(-n2nc(C)c(C(=O)O)c2-n2cccc2)cc1 please.
Solution: -8.13% (inactive)

Exercise: Same question for COc1ccc(CNC(=O)CC2Oc3ccc(C)cc3NC2=O)cc1 (stereo not given) please.
Solution: 14% (inactive)

Exercise: Same question for CCOC(=O)Cn1c(=O)n(C2CCCCC2)c2nc(-c3cccc(OC)c3)nc(C(N)=O)c21 please.
Solution: 8.07% (inactive)

Exercise: Same question for CCOC(=O)C1CCN(C(=O)c2cccc(S(=O)(=O)N(CC)c3ccccc3)c2)CC1 please.
Solution: -4.11% (inactive)

---

Listed next: entries and their corresponding activity change, negative = inhibition.
- testedTarget: D(1A) dopamine receptor (Homo sapiens) (UniProt P21728)
- experimentalDetails: Antagonist of Human D 1 Dopamine Receptor: qHTS; also: % is scaled to controls: 0 for no effect and ±100 for the full control effect
- conditions: HEK293 TREx D1 cells, calcium flux, dopamine EC80; at 10 µM; active compounds read low
Hit rate of the full screen: of about 360,000 compounds, about 11,000 (3.1%) were called active. This is one part of a sample in which actives are shown more often than they occur.

Worked cases, answers included:
O=S(=O)(Oc1ccccc1C(=S)N1CCOCC1)c1ccc(Cl)cc1 | -1.41% (inactive)
N#C/C(=C\N1CCOCC1)S(=O)(=O)c1ccc(Cl)cc1 | -41.8% (active)
CCOC(=O)c1ccc(N2C(=O)c3n[nH]c(C)c3C2c2ccc(O)c(OC)c2)cc1 (stereo not given) | -4.29% (inactive)
Cc1ccccc1OCC(=O)Nc1c(C(=O)Nc2ccccc2F)oc2ccccc12 | -7.86% (inactive)

Shift focus to the following entry.
Exercise: Param readout = activity change, negative = inhibition; param system = D(1A) dopamine receptor (Homo sapiens) (UniProt P21728); param query = NS(=O)(=O)c1ccc(NC(=O)COC(=O)c2c3c(nc4ccccc24)/C(=C\c2ccc4c(c2)OCO4)CCC3)cc1 ; response: value
Solution: -45.1% (active)

---

- testedTarget: D(1A) dopamine receptor (Homo sapiens) (UniProt P21728)
- experimentalDetails: Antagonist of Human D 1 Dopamine Receptor: qHTS; also: % is scaled to controls: 0 for no effect and ±100 for the full control effect
- conditions: HEK293 TREx D1 cells, calcium flux, dopamine EC80; at 10 µM
The campaign covered roughly 360,000 compounds. About 11,000 (3.1%) were called active. No stated cut-off is given here; in the data, active means activity change below about -30%; inactive means the rest. The list comes from a sample in which actives are over-represented; it also holds close analogues and randomly drawn compounds.
Result category, one only: active, inactive

Worked examples, 3 compounds total:
C[C@H](NC(=O)c1nc[nH]c1C(=O)NCC(=O)OC(C)(C)C)C(=O)OCc1ccccc1 | inactive
O=C(CSc1ccccc1)Nc1cccc(S(=O)(=O)N2CCCCC2)c1 | active
CNC(=O)c1[nH]cnc1C(=O)N[C@@H](CC(C)C)C(=O)OC(C)(C)C | inactive

Exercise: What did this assay record as the result for O=C(NC1CCCCC1)c1ccc2c(c1)N(Cc1ccc(Cl)cc1)C(=O)c1ccccc1S2=O (stereo not given) ?
Solution: inactive

Exercise: Same question for Cc1cc(C)cc(OCC(=O)Nc2nc(-c3ccc(F)cc3)ns2)c1 please.
Solution: inactive

Exercise: Same question for Cc1ccc(C(=O)Nc2ccccc2F)cc1S(=O)(=O)N1CCOCC1 please.
Solution: inactive

---

Listed next: entries and their corresponding activity change, negative = inhibition.
- testedTarget: D(1A) dopamine receptor (Homo sapiens)
- experimentalDetails: Antagonist of Human D 1 Dopamine Receptor: qHTS; also: % is scaled to controls: 0 for no effect and ±100 for the full control effect
- conditions: HEK293 TREx D1 cells, calcium flux, dopamine EC80; at 10 µM; active compounds read low
- Procedure: Dopamine receptors (DARs) are involved in the etiology and/or therapy of a number of neuropsychiatric and endocrine disorders. […] Freshly passaged cells are plated in 1536 well black, clear bottom plates at a density of 4000 cells/well in 3 ul of complete media containing 1x tetracycline inducer. […] Agonist read: A 10 cycle (1 second/cycle) baseline measurement is taken and then the FDSS online 1536 pintool delivers 23 nl of compound library (as well as dopamine controls) to the plate. […]
Among all 360,000 compounds or so, about 11,000 (3.1%) were called active. The entries come from a sample that favours actives as a whole.
Give the number; % is assumed, so skip it.

Worked cases, answers included:
CCc1cccc(NC(=O)CN(C)S(=O)(=O)c2ccc3[nH]c4c(c3c2)CCCC4)c1 | -15.3
Cc1ccc2oc(C(=O)Nc3ccc(S(=O)(=O)N4CCCCCC4)cc3)cc(=O)c2c1 | -13.8
O=[N+]([O-])/C=C/c1ccc2c(ccn2Cc2ccccc2)c1 | -37.9
Cc1oc2c(c1C(=O)Nc1ccc(F)c(F)c1)C1=NCCN1C=N2 | -2.12
CC(=O)Nc1cccc(OCC(=O)/C=C2\N(C)c3ccccc3C2(C)C)c1 | -35.4

Exercise: State the recorded activity change, negative = inhibition for this entry: N#Cc1nc(/C=C/c2ccc(F)cc2)oc1NC1CCCCC1
Solution: -1.82

Exercise: Same question for O=C(Nc1ccc(Br)cc1)c1ccc(Br)c(S(=O)(=O)NCc2ccccc2)c1 please.
Solution: -21.6

Exercise: Same question for Cc1cc(NS(=O)(=O)c2ccc3oc(=O)c4ncn(C)c4c3c2)ccc1Br please.
Solution: -1.47

Exercise: Same question for COc1cc2ccccc2cc1C(=O)Nc1ccc(S(=O)(=O)Nc2cc(C)on2)cc1 please.
Solution: 7.39

Exercise: Same question for Cc1ccc(C)c(S(=O)(=O)Nc2cc(C)on2)c1 please.
Solution: -1.84
